TARGET_OR_SYSTEM: Dihydroorotate dehydrogenase (quinone), mitochondrial (Plasmodium falciparum (isolate 3D7))
TEST: PfDHODH enzyme inhibitors, primary screen, biochemical, C-terminal His tag, absorbance 600 nm (AID 1175);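 note: recombinant parasite enzyme with a five histidine tag at its C terminus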
TEST_SETTINGS: DCIP absorbance 600 nm, higher = more signal, called active from +8 up or from −8 down
For each of the compounds below, state its composite z-score.
Kindly provide the number alone.

Reported composite z-score for CO[C@H]1O[C@H](CO)[C@@H](OC(=O)Nc2ccc(C(F)(F)F)cc2)[C@H](OC(=O)Nc2ccc3c(c2)OCO3)[C@@H]1OC(=O)Nc1ccc2c(c1)OCO2 : what is it? 0.524

Recorded composite z-score for COC(=O)[C@@]1(Cc2ccc(OC)cc2)[C@H]2c3cc(C(=O)N4CCCC4)n(CCN4CNCC4=O)c3C[C@H]2CN1C(=O)c1ccccc1 , please? 0.0916

Can you share its composite z-score? I mean this compound: COC(=O)[C@@]1(Cc2ccccc2)[C@H]2c3cc(C(=O)N(C)C)n(Cc4ccsc4Br)c3C[C@H]2CN1C(=O)c1ccccc1 0.486

// returns reported composite z-score for input C=CCC(OC(C)=O)[C@@H]1[C@@H](N(Cc2ccc(-c3cccc(C(F)(F)F)c3)o2)C(=O)c2ccc(C)cc2)c2cc(OCCCO)ccc2N1C(=O)Cc1ccc2ccccc2c1 (some centres undefined) -0.802

Entry O=C1O[C@@H](c2ccccc2)[C@@H](c2ccccc2)N2[C@@H](c3ccccc3OCCO)[C@]3(C(=O)Nc4ccccc43)[C@@H](C(=O)Nc3nc4ccccc4s3)[C@H]12 has what composite z-score? 0.905

What value of composite z-score has been recorded for this entry: CN1C(=O)C2C=CC(C(O)c3ccc([N+](=O)[O-])cc3)N(N3CCCCC3)C2C1=O (centres undefined) 0.0871

# composite z-score lookup, item C=CCNC(=O)[C@@H]1[C@H]2C(=O)O[C@H](c3ccccc3)[C@H](c3ccccc3)N2[C@H](c2ccccc2OCCO)[C@@]12C(=O)N(C(=O)OCCOC)c1ccccc12 0.693

For the compound [N-]=[N+]=NCc1ccccc1[C@@H]1OC(c2ccc(OCCCO)cc2)=N[C@]1(Cc1ccccc1)C(=O)NCC(O)CO (some centres undefined) , what composite z-score is on record? -0.0408

# composite z-score lookup, item O=C1O[C@H](c2ccccc2)[C@H](c2ccccc2)N2[C@H]1[C@@H](C(=O)N1CCCCCCC1)[C@]1(C(=O)Nc3ccc(C#CCCO)cc31)[C@H]2c1ccccc1OCCO 0.929

# input compound: O=C(NCCN1CCOCC1)C1N=C(c2ccc(OCCCO)cc2)N(c2ccccc2)O1 (centres undefined) ; wanted: its composite z-score 0.301

Item under review: CN1C=C(C(=O)OCCS(C)(=O)=O)C(C(=O)OCCS(C)(=O)=O)=CC(c2ccc(CO)cc2)=CC1C1CC1 (centres undefined) . Reported composite z-score? -0.524

So what does the record say about composite z-score for C=CC(=C)[C@H]1Oc2ccccc2S(=O)(=O)N2CCC[C@@H]12 ? 0.742

Give the measured composite z-score of COC(=O)[C@@]1(Cc2ccc(F)cc2)[C@H]2c3cc(C(=O)N(C)C)n(Cc4ccc(Cl)c(C(F)(F)F)c4)c3C[C@H]2CN1C(=O)c1ccccc1 . 0.117

Given the compound COCC(=C=CC[C@@H](O)c1cccc(OCCO)c1)C[C@@H](O)c1ccccn1 , what is its reported composite z-score? -1.61

====

Test system: XIP peptide (Xip251-270) binding
TEST: small-molecule binders of XIP peptide, primary screen, biochemical, small-molecule microarray, fluorescence 635/667 nm, 0.1 µg/mL protein (AID 1182)
TEST_SETTINGS: fluorescent protein binding, 635 nm, higher = more signal, called active from +8 up or from −8 down
// map composite z-score onto a label; ranges lower bin (below 0.4), middle bin (0.4 to below 0.7), upper bin (0.7 or more)

// bin(item) where item = O=C(c1ccccc1)N1C(=O)[C@]2(COC(c3ccc(OCCCO)cc3)=N2)Cc2ccccc21 upper bin

Please let me know in which category the item CCCCC(CC)C(O)C1C=CC2C(=O)N(Cc3ccccc3)C(=O)C2N1n1cnnc1 (stereo not drawn) belongs. lower bin

Category of C=C(COC)C(=O)CC[C@@H](OC(C)=O)c1ccc(CO)o1 : upper bin

For COCCOC(=O)N1C(=O)[C@@]2(c3cc(C#CC4(O)CCCCCC4)ccc31)[C@H](c1ccc(OCCO)cc1)N1[C@H](c3ccccc3)[C@H](c3ccccc3)OC(=O)[C@H]1[C@@H]2C(=O)N1CCN(c2ncccn2)CC1 , which composite z-score bin applies? middle bin

Which category does the recorded composite z-score put [N-]=[N+]=NCc1ccccc1C[C@]1(C(N)=O)COC(c2ccc(OCCCO)cc2)=N1 in? lower bin

Which category fits this record: C=CC[C@]1(C(=O)NCCCOC)N=C(c2ccc(OCCCO)cc2)O[C@H]1c1ccccc1CN=[N+]=[N-] upper bin

Could you place C=C(CCCC)C(=O)CC[C@@H](OC(=O)c1ccccc1-c1ccccc1C(=O)O)c1ccc(OCCO)cc1 in its proper category? Many thanks. lower bin

Hello team, could you let me know which band the following compound falls into: COc1cc2c(cc1OC)CN(C(=O)[C@H]1[C@@H]3C(=O)O[C@@H](c4ccccc4)[C@@H](c4ccccc4)N3[C@@H](c3ccc(O)cc3)[C@]13C(=O)Nc1ccccc13)CC2 middle bin

Which category does the recorded composite z-score put CN1C(=O)C2C=CC(C(O)C3CC=CCC3)N(N(c3ccccc3)c3ccccc3)C2C1=O (stereo not drawn) in? lower bin

Categorize the following entry: O=C1C[C@]2(c3ccc([N+](=O)[O-])cc3)C(=O)N(CC(F)(F)F)c3cc(CO)ccc3[C@H]2N1C1CCCCC1 lower bin

Bin this entry: [N-]=[N+]=Nc1ccccc1[C@H]1OC(c2ccc(OCCCO)cc2)=N[C@@]1(CCS(=O)(=O)c1ccccc1)C(N)=O upper bin

Hey, which category is COc1ccc(C#Cc2ccc3c(c2)[C@]2(C(=O)N3)[C@H](C(=O)NC[C@H](O)c3ccccc3)[C@H]3C(=O)O[C@H](c4ccccc4)[C@H](c4ccccc4)N3[C@@H]2c2ccc(O)cc2)cc1 in, do you know? middle bin

Please classify: CN(C)CCCCCCNC(=O)[C@@H]1C[C@@H]2C(=O)N[C@@H](Cc3ccccc3)C(=O)N2[C@@H]1c1ccc(O)cc1 middle bin

Input COc1ccc(C(O)C2C=CC3C(=O)N(Cc4ccccc4)C(=O)C3N2n2cnnc2)cc1OCc1ccccc1 (stereo not drawn) ; output its category middle bin

For this compound, which bin applies? NC(=O)NCC#Cc1ccc2c(c1)[C@]1(C(=O)N2)[C@H](C(N)=O)[C@H]2C(=O)O[C@H](c3ccccc3)[C@H](c3ccccc3)N2[C@@H]1c1ccc(O)cc1 upper bin

Category of CCS[C@H]1[C@@H](C(=O)O)[C@H](c2ccc(C)cc2)N(S(=O)(=O)c2ccc(C)cc2)[C@@H]1CC : middle bin

Class? Entry: COc1cc(COC(C)=O)ccc1OC(C)=O lower bin

// bin(item) where item = C=CCC(OC(C)=O)[C@@H]1[C@@H](N(Cc2ccc(-c3ccccc3)cc2)C(=O)c2cccc3ccccc23)c2cc(OCCCO)ccc2N1C(=O)c1ccc(-c2ccccc2)cc1 (stereo partly drawn) lower bin

Category of CCCC[C@H]1OB(O)C[C@H]2C1=C(COC)Cn1c(=O)n(-c3ccccc3)c(=O)n12 , please. upper bin

Class? Entry: CC(=O)NCCCC[C@@H]1NC(=O)[C@H]2C[C@@H](C(=O)NCCCCCCNC(=O)CS)[C@@H](c3ccc(O)cc3)N2C1=O upper bin

Into which category would you place C=CCOC(=O)[C@H]1[C@@H]2C(=O)O[C@@H](c3ccccc3)[C@@H](c3ccccc3)N2[C@@H](c2ccc(OCCOC(=O)[C@@H]3C[C@@H]4C(=O)N[C@@H](CC(C)C)C(=O)N4[C@@H]3c3ccc(O)cc3)cc2)[C@]12C(=O)Nc1ccccc12 ? upper bin

Lab note: sort [N-]=[N+]=Nc1ccccc1[C@@H]1OC(c2ccc(OCCCO)cc2)=N[C@]1(Cc1ccccc1)C(=O)N1CCOCC1 into the matching composite z-score band. middle bin

Entry CCOC(=O)[C@H]1C/C=C/C[C@H](C(=O)OCC)C(=O)O[C@H]2[C@@H](OC)O[C@H](CO)[C@@H](OC(=O)c3c(OC)cccc3OC)[C@@H]2OC1=O belongs to which category? middle bin

Which class does COCCOC(=O)N1C(=O)[C@@]2(c3cc(C#CCCO)ccc31)[C@H](C(N)=O)[C@H]1C(=O)O[C@H](c3ccccc3)[C@H](c3ccccc3)N1[C@@H]2c1ccc(O)cc1 fall in? lower bin

Lab note: sort O=C1C2C=CC(C(O)Cc3ccccc3)N(n3cnnc3)C2C(=O)N1Cc1ccccc1 (stereo not drawn) into the matching composite z-score band. lower bin

GET /class?item= CN(C)C(=O)[C@@]1(CCS(=O)(=O)c2ccccc2)COC(c2ccc(OCCCO)cc2)=N1 middle bin

Cited source: PubChem BioAssay
